TARGET: human c-Met, cell membrane expressed (A549, BxPC-3, myeloma cells) (human, UniProt P08581 25-1390)
Sequence (P08581 25-1390 limits assumed, form in doubt): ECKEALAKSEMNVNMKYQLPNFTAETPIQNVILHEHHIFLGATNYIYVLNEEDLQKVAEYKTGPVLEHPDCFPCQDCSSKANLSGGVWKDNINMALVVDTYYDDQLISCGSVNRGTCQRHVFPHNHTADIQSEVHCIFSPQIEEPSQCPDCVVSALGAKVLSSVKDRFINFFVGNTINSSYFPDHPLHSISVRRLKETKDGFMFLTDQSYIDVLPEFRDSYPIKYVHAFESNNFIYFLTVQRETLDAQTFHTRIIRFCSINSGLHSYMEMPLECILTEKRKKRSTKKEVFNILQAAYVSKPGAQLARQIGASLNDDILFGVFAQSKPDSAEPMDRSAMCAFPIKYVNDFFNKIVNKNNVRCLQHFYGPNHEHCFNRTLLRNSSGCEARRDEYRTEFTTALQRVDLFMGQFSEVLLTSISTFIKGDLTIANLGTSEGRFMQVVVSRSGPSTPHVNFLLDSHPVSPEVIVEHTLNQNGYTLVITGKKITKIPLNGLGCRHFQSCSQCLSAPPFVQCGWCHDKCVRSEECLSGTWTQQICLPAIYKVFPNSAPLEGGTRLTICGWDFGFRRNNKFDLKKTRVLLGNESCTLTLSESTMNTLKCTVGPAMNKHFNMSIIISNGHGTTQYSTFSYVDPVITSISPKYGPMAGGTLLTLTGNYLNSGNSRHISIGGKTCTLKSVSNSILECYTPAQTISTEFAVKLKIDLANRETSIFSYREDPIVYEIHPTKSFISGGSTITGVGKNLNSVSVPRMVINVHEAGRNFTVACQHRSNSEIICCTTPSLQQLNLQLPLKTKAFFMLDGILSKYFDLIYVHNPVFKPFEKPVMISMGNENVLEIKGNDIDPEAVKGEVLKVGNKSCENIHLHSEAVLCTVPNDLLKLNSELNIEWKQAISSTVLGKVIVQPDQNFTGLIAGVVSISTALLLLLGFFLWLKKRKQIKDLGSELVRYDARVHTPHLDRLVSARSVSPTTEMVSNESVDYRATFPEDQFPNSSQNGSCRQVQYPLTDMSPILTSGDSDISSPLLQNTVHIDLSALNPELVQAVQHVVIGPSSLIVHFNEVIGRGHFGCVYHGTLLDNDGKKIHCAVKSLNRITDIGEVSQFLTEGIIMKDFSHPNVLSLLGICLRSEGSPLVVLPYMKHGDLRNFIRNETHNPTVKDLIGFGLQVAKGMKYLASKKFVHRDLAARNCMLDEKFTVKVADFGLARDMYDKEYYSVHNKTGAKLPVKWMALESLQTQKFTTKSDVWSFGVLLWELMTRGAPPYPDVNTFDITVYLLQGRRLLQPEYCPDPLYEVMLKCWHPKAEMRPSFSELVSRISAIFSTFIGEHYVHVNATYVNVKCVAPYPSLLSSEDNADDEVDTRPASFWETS
ASSAY NAME: cell-based or functional assay
METRIC: IC50, c-Met phosphorylation (nM)
Provide only the numeric value, understood in nM.

Lab book: IC50, c-Met phosphorylation of A007901253 (VHH) VHH: EVQLVESGGGLVQPGGSLRLSCAASGFTFDDYAIGWFRQAPGEEREGVSSISSTYGLTYYADPVKGRFTISSDNSKNTVYLQMNSLRPEDTAVYYCAATPIGLIGLDAYEYDYWGQGTLVTVSS noted as 4.84

Lab book: IC50, c-Met phosphorylation of A007901250 (VHH) VHH: EVQLVESGGGLVQPGGSLRLSCAASGFAFDDYAIGWFRQAPGEERLGVSSISSTYGLTYYADSVKGRFTISSDNSKNTVYLQMNSLRPEDTAVYYCAATPIGLIGLDAYEYDYWGQGTLVTVSS noted as 2.34

Lab book: IC50, c-Met phosphorylation of A007901251 (VHH) VHH: EVQLVESGGGLVQPGGSLRLSCAASGFTFDDYAIGWFRQAPGKERLGVSSISSTYGLTYYADSVKGRFTISSDNSKNTVYLQMNSLRPEDTAVYYCAATPIGLIGLDAYEYDYWGQGTLVTVSS noted as 4.98

Lab book: IC50, c-Met phosphorylation of A007900184 (33H10-3xFLAG-His6) (VHH) VHH: EVQLVESGGGLVQAGGSLRLSCAASGFTFDDYAIGWFRQAPGEEREGVSSISSTYGLTYYADSVKGRFTISSSNAKNTVYLQMNNLKPEDTAVYYCAATPIERLGLDAYEYDYWGQGTLVTVSS noted as 79

Origin of measurements: patent EP2747783B1
